Reference source: ChEMBL document CHEMBL3608216

Below, each entry is listed with its recorded MIC.
tested on: Bacillus subtilis; test: Antibacterial activity against Bacillus subtilis […] after 24 to 48 hrs by agar dilution method; format: functional
Could you write the number and then its unit?

Ask | Suppose we examine the compound C=C[C@]1(C)C[C@@H](OC(=O)CSc2nc(N)cc(O)n2)[C@]2(C)[C@H](C)CC[C@]3(CCC(=O)[C@H]32)[C@@H](C)[C@@H]1O ; what MIC value has been reported?
Reply | 32 µg/mL

Ask | Suppose we examine the compound C=C[C@]1(C)C[C@@H](OC(=O)CSc2nc(N)cc(OC)n2)[C@]2(C)[C@H](C)CC[C@]3(CCC(=O)[C@H]32)[C@@H](C)[C@@H]1O ; what MIC value has been reported?
Reply | 16 µg/mL

Ask | Suppose we examine the compound C=C[C@]1(C)C[C@@H](OC(=O)CSc2nc(O)cc(NC(=O)[C@H](N)C(C)C)n2)[C@]2(C)[C@H](C)CC[C@]3(CCC(=O)[C@H]32)[C@@H](C)[C@@H]1O ; what MIC value has been reported?
Reply | 8 µg/mL

Ask | Suppose we examine the compound C=C[C@]1(C)C[C@@H](OC(=O)CSc2nc(O)cc(NC(C)=O)n2)[C@]2(C)[C@H](C)CC[C@]3(CCC(=O)[C@H]32)[C@@H](C)[C@@H]1O ; what MIC value has been reported?
Reply | 32 µg/mL

Ask | Suppose we examine the compound C=C[C@]1(C)C[C@@H](OC(=O)CSc2nc(O)cc(NC(=O)[C@H]3CCCCN3)n2)[C@]2(C)[C@H](C)CC[C@]3(CCC(=O)[C@H]32)[C@@H](C)[C@@H]1O ; what MIC value has been reported?
Reply | 16 µg/mL

Ask | Suppose we examine the compound C=C[C@]1(C)C[C@@H](OC(=O)CSc2nc(O)cc(NC(=O)[C@@H]3CCCCN3)n2)[C@]2(C)[C@H](C)CC[C@]3(CCC(=O)[C@H]32)[C@@H](C)[C@@H]1O ; what MIC value has been reported?
Reply | 16 µg/mL
